target: Acetylcholinesterase (Electrophorus electricus) (UniProt O42275); experiment: Inhibition of electric eel AChE using […] as a substrate at 30 uM incubated for 10 mins by DTNB reagent based Ellman's method
Sequence (O42275 24-633 limits assumed): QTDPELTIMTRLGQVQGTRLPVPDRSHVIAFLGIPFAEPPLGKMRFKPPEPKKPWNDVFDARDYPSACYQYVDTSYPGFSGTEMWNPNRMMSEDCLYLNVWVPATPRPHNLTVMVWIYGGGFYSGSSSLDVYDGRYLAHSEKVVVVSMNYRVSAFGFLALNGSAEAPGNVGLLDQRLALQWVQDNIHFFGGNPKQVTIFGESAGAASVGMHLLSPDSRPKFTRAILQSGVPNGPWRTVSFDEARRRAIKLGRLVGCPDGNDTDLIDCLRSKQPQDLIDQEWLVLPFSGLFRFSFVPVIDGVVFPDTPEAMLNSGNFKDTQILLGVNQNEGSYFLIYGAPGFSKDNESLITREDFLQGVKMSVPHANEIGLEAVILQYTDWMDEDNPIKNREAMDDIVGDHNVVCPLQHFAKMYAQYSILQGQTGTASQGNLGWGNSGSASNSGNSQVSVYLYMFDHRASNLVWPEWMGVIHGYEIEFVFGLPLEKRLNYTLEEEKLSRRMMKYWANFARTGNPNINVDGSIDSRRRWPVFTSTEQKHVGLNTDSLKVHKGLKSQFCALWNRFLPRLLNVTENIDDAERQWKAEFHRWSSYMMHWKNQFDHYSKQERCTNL
Recorded measurements of inhibition, one per entry
Note: unit % is implicit; provide only the numeric part.

Previously resolved entries follow.
smiles	inhibition (%)
O=C(CN1C(=O)c2ccccc2C1=O)N1CCN(c2ccc(Cl)cc2)CC1	8.11
O=C(CN1C(=O)c2ccccc2C1=O)N1CCN(Cc2ccc(Br)cc2)CC1	8.38

With those in mind, consider the next compound.
Data point: O=C(CN1C(=O)c2ccccc2C1=O)N1CCN(c2ncccn2)CC1 ; inhibition = 39.6
